- Tested on: human glioma cells (LN229)
- assay explanation: In-vitro growth inhibition, MTT method, LN229
- Type: cell-based
- test parameters: LN-229, 48 h
value type: IC50 (µM)

> print(dat)
                                   compound  qualifying.sign  number
1  Cn1nnc2c(C(=O)NCCn3[se]c4ccccc4c3=O)ncn2c1=O                =    14.4
2  Cn1nnc2c(C(N)=O)ncn2c1=O [TMZ, temozolomide, reference compound]                >     500
3  Cc1ccc2c(=O)n(CCNC(=O)c3ncn4c(=O)n(C)nnc34)[se]c2c1                =    13.7
4  COc1ccc2[se]n(CCNC(=O)c3ncn4c(=O)n(C)nnc34)c(=O)c2c1                =    21.2
5  Cc1ccc2[se]n(CCNC(=O)c3ncn4c(=O)n(C)nnc34)c(=O)c2c1                =    11.3
6  Cn1nnc2c(C(=O)NCCn3[se]c4cc(F)ccc4c3=O)ncn2c1=O                =      19
7  Cn1nnc2c(C(=O)NCCn3[se]c4ccc(F)cc4c3=O)ncn2c1=O                =    52.2
8  Cn1nnc2c(C(=O)NCCn3[se]c4ccc(Br)cc4c3=O)ncn2c1=O                =    14.4
9  Cn1nnc2c(C(=O)NCCn3[se]c4ccc(Cl)cc4c3=O)ncn2c1=O                =    44.1
